Overview of reported kobs1 across a group of compounds:
molecular target: L25I PETNR (Enterobacter cloacae, UniProt P71278, L26I); settings: 30 °C; 10 mM NADPH or 25 mM NADH; pH 7.0
Sequence (P71278 entry or part of it L26I): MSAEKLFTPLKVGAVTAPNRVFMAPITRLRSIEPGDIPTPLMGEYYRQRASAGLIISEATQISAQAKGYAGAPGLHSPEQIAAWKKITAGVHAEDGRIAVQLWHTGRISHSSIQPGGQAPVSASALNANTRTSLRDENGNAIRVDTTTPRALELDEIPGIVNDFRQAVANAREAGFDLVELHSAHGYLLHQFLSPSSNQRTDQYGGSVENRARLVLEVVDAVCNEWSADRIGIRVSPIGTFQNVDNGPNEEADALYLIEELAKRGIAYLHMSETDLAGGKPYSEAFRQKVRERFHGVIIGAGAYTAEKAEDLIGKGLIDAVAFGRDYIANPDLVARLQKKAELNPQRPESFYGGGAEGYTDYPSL

{"Compound": "[2H][C@@H]1C=CN([C@@H]2O[C@H](COP(=O)(O)OP(=O)(O)OC[C@H]3O[C@@H](n4cnc5c(N)ncnc54)[C@H](OP(=O)(O)O)[C@@H]3O)[C@@H](O)[C@H]2O)C=C1C(N)=O [(R)-[4-^2H]-NADPH]", "kobs1": "5.72 ± 0.06 s⁻¹"}
{"Compound": "NC(=O)C1=CN([C@@H]2O[C@H](COP(=O)(O)OP(=O)(O)OC[C@H]3O[C@@H](n4cnc5c(N)ncnc54)[C@H](OP(=O)(O)O)[C@@H]3O)[C@@H](O)[C@H]2O)C=CC1 [NADPH]", "kobs1": "36.74 ± 0.28 s⁻¹"}
{"Compound": "[2H][C@@H]1C=CN([C@@H]2O[C@H](COP(=O)(O)OP(=O)(O)OC[C@H]3O[C@@H](n4cnc5c(N)ncnc54)[C@H](O)[C@@H]3O)[C@@H](O)[C@H]2O)C=C1C(N)=O [(R)-[4-^2H]-NADH]", "kobs1": "0.306 ± 0.005 s⁻¹"}
{"Compound": "NC(=O)C1=CN([C@@H]2O[C@H](COP(=O)(O)OP(=O)(O)OC[C@H]3O[C@@H](n4cnc5c(N)ncnc54)[C@H](O)[C@@H]3O)[C@@H](O)[C@H]2O)C=CC1 [NADH]", "kobs1": "2.39 ± 0.06 s⁻¹"}

====

biological target: WT PETNR (Enterobacter cloacae, UniProt P71278); assay: Stopped-flow FMN reduction (reductive half-reaction, hydride transfer) of WT PETNR by coenzyme; conditions: 20 °C; 10 mM NADPH or 25 mM NADH; pH 7.0
Sequence (P71278 entry or part of it): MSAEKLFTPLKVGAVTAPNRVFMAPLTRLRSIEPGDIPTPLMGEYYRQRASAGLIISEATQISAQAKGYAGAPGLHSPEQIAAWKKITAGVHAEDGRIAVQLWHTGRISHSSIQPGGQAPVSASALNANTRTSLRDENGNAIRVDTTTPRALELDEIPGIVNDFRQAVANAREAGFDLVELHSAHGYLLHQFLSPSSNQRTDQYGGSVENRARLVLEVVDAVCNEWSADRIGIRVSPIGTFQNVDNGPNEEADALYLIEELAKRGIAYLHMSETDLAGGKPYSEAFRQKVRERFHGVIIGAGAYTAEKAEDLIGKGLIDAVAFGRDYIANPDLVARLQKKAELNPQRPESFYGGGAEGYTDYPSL
Readout: kobs1 (s⁻¹)

{"Molecule": "[2H][C@@H]1C=CN([C@@H]2O[C@H](COP(=O)(O)OP(=O)(O)OC[C@H]3O[C@@H](n4cnc5c(N)ncnc54)[C@H](OP(=O)(O)O)[C@@H]3O)[C@@H](O)[C@H]2O)C=C1C(N)=O [(R)-[4-^2H]-NADPH]", "Value observed": 3.95}
{"Molecule": "NC(=O)C1=CN([C@@H]2O[C@H](COP(=O)(O)OP(=O)(O)OC[C@H]3O[C@@H](n4cnc5c(N)ncnc54)[C@H](O)[C@@H]3O)[C@@H](O)[C@H]2O)C=CC1", "Value observed": 1.51}
{"Molecule": "[2H][C@@H]1C=CN([C@@H]2O[C@H](COP(=O)(O)OP(=O)(O)OC[C@H]3O[C@@H](n4cnc5c(N)ncnc54)[C@H](O)[C@@H]3O)[C@@H](O)[C@H]2O)C=C1C(N)=O [(R)-[4-^2H]-NADH]", "Value observed": 0.204}
{"Molecule": "NC(=O)C1=CN([C@@H]2O[C@H](COP(=O)(O)OP(=O)(O)OC[C@H]3O[C@@H](n4cnc5c(N)ncnc54)[C@H](OP(=O)(O)O)[C@@H]3O)[C@@H](O)[C@H]2O)C=CC1", "Value observed": 26.28}

====

biological target: WT PETNR (Enterobacter cloacae, UniProt P71278); assay: Stopped-flow FMN reduction (reductive half-reaction, hydride transfer) of WT PETNR by coenzyme; details: 25 °C; 10 mM NADPH or 25 mM NADH; pH 7.0
Readout: kobs1 (s⁻¹)

{"Compound": "NC(=O)C1=CN([C@@H]2O[C@H](COP(=O)(O)OP(=O)(O)OC[C@H]3O[C@@H](n4cnc5c(N)ncnc54)[C@H](O)[C@@H]3O)[C@@H](O)[C@H]2O)C=CC1", "Readout": "kobs1", "Value observed": 1.95}
{"Compound": "[2H][C@@H]1C=CN([C@@H]2O[C@H](COP(=O)(O)OP(=O)(O)OC[C@H]3O[C@@H](n4cnc5c(N)ncnc54)[C@H](OP(=O)(O)O)[C@@H]3O)[C@@H](O)[C@H]2O)C=C1C(N)=O [(R)-[4-^2H]-NADPH]", "Readout": "kobs1", "Value observed": 5.20}
{"Compound": "NC(=O)C1=CN([C@@H]2O[C@H](COP(=O)(O)OP(=O)(O)OC[C@H]3O[C@@H](n4cnc5c(N)ncnc54)[C@H](OP(=O)(O)O)[C@@H]3O)[C@@H](O)[C@H]2O)C=CC1", "Readout": "kobs1", "Value observed": 33.74}
{"Compound": "[2H][C@@H]1C=CN([C@@H]2O[C@H](COP(=O)(O)OP(=O)(O)OC[C@H]3O[C@@H](n4cnc5c(N)ncnc54)[C@H](O)[C@@H]3O)[C@@H](O)[C@H]2O)C=C1C(N)=O [(R)-[4-^2H]-NADH]", "Readout": "kobs1", "Value observed": 0.274}
